- testName: Hemolytic activity against human RBC incubated for 1 hr
- Type: ADME, cell-based, Erythrocyte
- cond: red blood cells (erythrocytes), read-out: CC50
readoutName: HC50 at 1 h

Look up and state reported HC50 at 1 h for CC[C@H](C)[C@@H]1NC(=O)[C@H](CC(C)C)NC(=O)[C@H](C)NC(=O)[C@H]([C@H](C)O)NC(=O)[C@H](C(C)C)NC(=O)[C@H]([C@H](C)O)NC(=O)[C@H](CS)NC(=O)[C@@H]2CCCN2C1=O
21.9 µM

====

- testName: Cytotoxicity against HUVEC cells assessed as decrease in cell viability measured after 24 hrs by MTT assay
- Type: cell-based
- cond: human
readoutName: CC50 at 24 h (nM)
Numbers only, in nM.

Note CC50 at 24 h for the compound shown: CC[C@H](C)[C@@H]1NC(=O)[C@H](CC(C)C)NC(=O)[C@H](C)NC(=O)[C@H]([C@H](C)O)NC(=O)[C@H](C(C)C)NC(=O)[C@H]([C@H](C)O)NC(=O)[C@H](CS)NC(=O)[C@@H]2CCCN2C1=O
900
